- Test system: Vibrio parahaemolyticus
- measurement_notes: Antibacterial activity against Vibrio parahaemolyticus isolate 72016
- Type: functional
We begin with a simple list: items and their reported MIC.
Write down the numeric answer in µg/mL and omit the unit.

In the examples that follow, each entry is paired with its recorded MIC.
item_smiles: CCOC(=O)c1c(C(=O)OCC)c2c3ccccc3ccn2c1C(=O)c1ccccc1
tested_on: Vibrio parahaemolyticus
MIC [µg/mL]: 128
--
item_smiles: CCOC(=O)c1cc(C(=O)c2ccccc2)n2ccc3ccccc3c12
tested_on: Vibrio parahaemolyticus
MIC [µg/mL]: 256
--
item_smiles: CCOC(=O)c1c(C(=O)OCC)c2ccc3ccccc3n2c1C(=O)c1ccccc1
tested_on: Vibrio parahaemolyticus
MIC [µg/mL]: 64
--
item_smiles: COC(=O)c1c(C(=O)OC)c2c3ccccc3ccn2c1C(=O)c1ccccc1
tested_on: Vibrio parahaemolyticus
MIC [µg/mL]: 256
--
item_smiles: COC(=O)c1cc(C(=O)c2ccccc2)n2ccc3ccccc3c12
tested_on: Vibrio parahaemolyticus
MIC [µg/mL]: 256

What value of MIC has been recorded for this entry: O=C(c1ccccc1)c1c(-c2ccccc2)cc2c3ccccc3ccn12 500

What value of MIC has been recorded for this entry: N#Cc1cc2ccccn2c1C(=O)c1ccccc1 256

What value of MIC has been recorded for this entry: CC1(C)S[C@@H]2[C@H](NC(=O)[C@H](N)c3ccc(O)cc3)C(=O)N2[C@H]1C(=O)O 256

---

We begin with a simple list: items and their reported MIC.
- Tested on: Vibrio cholerae
- measurement_notes: Antibacterial activity against Vibrio cholerae isolate 7201
- Type: functional

In the examples that follow, each entry is paired with its recorded MIC.
item_smiles: CCOC(=O)c1c(C(=O)OCC)c2ccc3ccccc3n2c1C(=O)c1ccccc1
MIC: 128 µg/mL
--
item_smiles: COC(=O)c1cc2ccc3ccccc3n2c1C(=O)c1ccccc1
MIC: > 500 µg/mL
--
item_smiles: CCOC(=O)c1cc(C(=O)c2ccccc2)n2ccc3ccccc3c12
MIC: 32 µg/mL
--
item_smiles: CC1(C)S[C@@H]2[C@H](NC(=O)[C@H](N)c3ccc(O)cc3)C(=O)N2[C@H]1C(=O)O
MIC: 256 µg/mL
--
item_smiles: N#Cc1cc(C(=O)c2ccccc2)n2ccc3ccccc3c12
MIC: 32 µg/mL

Param readout = MIC; param system = Vibrio cholerae; param query = O=C(c1ccccc1)c1c(-c2ccccc2)cc2c3ccccc3ccn12 ; response: value 64 µg/mL

Param readout = MIC; param system = Vibrio cholerae; param query = CCOC(=O)c1c(C(=O)OCC)c2c3ccccc3ccn2c1C(=O)c1ccccc1 ; response: value 500 µg/mL

---

- Tested on: Pseudomonas aeruginosa
- measurement_notes: Antibacterial activity against Pseudomonas aeruginosa ATCC 27853 at 1 to 1000 ug/ml after overnight incubation by disc diffusion method
- Format: functional
Active and inactive are the calls of the source. The calls are words filed in the database; no cut-off is given here.
reported_endpoint: diameter of the inhibition zone (DIZ)

item_smiles: COC(=O)c1c(C(=O)OC)c2ccc3ccccc3n2c1C(=O)c1ccccc1
test_result: inactive
//
item_smiles: O=C(c1ccccc1)c1c(-c2ccccc2)cc2c3ccccc3ccn12
test_result: 8.1 mm
//
item_smiles: CCOC(=O)c1cc(C(=O)c2ccccc2)n2ccc3ccccc3c12
test_result: 11 mm
//
item_smiles: CCOC(=O)c1c(C(=O)OCC)c2ccc3ccccc3n2c1C(=O)c1ccccc1
test_result: 9.7 mm
//
item_smiles: N#Cc1cc2ccccn2c1C(=O)c1ccccc1
test_result: inactive

Moving on to another compound below.
Param readout = diameter of the inhibition zone (DIZ); param system = Pseudomonas aeruginosa; param query = N#Cc1cc(C(=O)c2ccccc2)n2ccc3ccccc3c12 ; response: value 9.5 mm
